Target: BCL6 (Homo sapiens)
Construct: endogenous in cells; host or cells: T47D breast cancer epithelial cells
Experiment: Immunofluorescence protocol for high content imaging of BCL6 (degradation) in T47D cells, 3 days compound treatment
Format: cell-based
Details: T47D, read-out: Mean Dmax (%)** category
Experimental: Immunofluorescence Protocol for High Content Imaging of BCL6 T47D cells were seeded in 100 μl volume of RPMI1640-10% FBS in a 96-well black/clear bottom plates for adherent lines (Corning #3904). Day 1. T47D breast cancer epithelial cells were seeded at a density so that confluence is ˜70-90% at endpoint. Cells were seeded at 7K/0.1 ml/well the morning prior to the addition of exemplary bifunctional degradation compounds. Day 2. […] Plates were equilibrated to room temperature prior to reading. […]
quantity.kind: Dmax

Req: What measured Dmax goes with CNC(=O)COc1cc2cc(Nc3cc(N4CCC(CN5CCC6(CN(c7ccc8c(c7)CN(C7CCC(=O)NC7=O)C8=O)C6)C(F)(F)C5)CC4)ncc3Cl)ccc2n(C(C)C)c1=O (centres unmarked) [Compound 231] ?
Resp: 50 to 70%

Req: I am curious: what Dmax value has been reported for CNC(=O)COc1cc2cc(Nc3nc(N4CCC(CN5CC(N6CCN(c7ccc8c(c7)C(=O)N(C7CCC(=O)NC7=O)C8=O)CC6)C5)CC4)ncc3Cl)ccc2n(C(C)C)c1=O (centres unmarked) [Compound 241] ?
Resp: ≥ 70%

Req: So what does the record say about Dmax for CNC(=O)COc1cc2c(F)c(Nc3nc(N4CCC(CN5CCC6(CC5)CC5(CN(c7ccc8c(c7)CN(C7CCC(=O)NC7=O)C8=O)C5)C6)CC4)ncc3Cl)ccc2n(C(C)C)c1=O (centres unmarked) [Compound 421] ?
Resp: ≥ 70%

Req: // query Dmax value for entry CNC(=O)COc1cc2cc(Nc3nc(N4CCC(O[C@H]5C[C@H](N6CCC(c7ccc8c(c7F)CN([C@H]7CCC(=O)NC7=O)C8=O)CC6)C5)CC4)ncc3Cl)ccc2n(C(C)C)c1=O [Compound 385]
Resp: 50 to 70%

Req: Any idea what its Dmax is? The molecule is CNC(=O)COc1cc2cc(Nc3nc(N4CCC(CN5CCC6(CC5)CCN6c5cccc6c5C(=O)N(C5CCC(=O)NC5=O)C6=O)CC4)ncc3Cl)ccc2n(C(C)C)c1=O (centres unmarked) [Compound 333]
Resp: ≥ 70%

From: patent US11986532B2
